- method: ATG_ERE_CIS: Attagene CIS-FACTORIAL HepG2 Assay for Estrogen Response Element (ERE) (AID 2282940)
- study conditions: HepG2 ERE cis-reporter, Attagene RNA transcript; actives raise or lower the signal
- Procedure: ATG_CIS is a cell-based, multiplexed-readout assay that uses HepG2, a human liver cell line, with measurements taken at 24 hours after chemical dosing in a 24-well plate.ATG_ERE_CIS is one of 52 assay component(s) measured or calculated from the ATG_CIS assay. […] This assay endpoint, ATG_ERE_CIS, was analyzed with bidirectional fitting relative to DMSO as the negative control and baseline of activity. […]
Calls of active or inactive are those of the source. Rule for the calls: active = hit-call score of the fitted dose curve at least 0.9, where 1 is the maximum; inactive = score below 0.9.
measured quantity: AC50

# compound, measured value
records = [
    ("C=C(C)C(=O)OCCCCCC", "inactive"),
    ("CCO[Si](CCCN)(OCC)OCC", "inactive"),
    ("O=C1CCCCCCCCCCCCCC1", "inactive"),
    ("CCCc1c(OCCCCc2nn[nH]n2)ccc(C(C)=O)c1O", "inactive"),
    ("CN1CCCC1", "inactive"),
    ("CCCOCCC", "inactive"),
]

Record AC50 for all entries; do not skip any.
1. CCOC(=O)c1ccccc1
2. COc1ccc2ccccc2c1
3. CC(C)CC(=O)O
4. CCCCCCC1CCC(=O)O1 (centres undefined)

Result:
1: inactive; 2: inactive; 3: inactive; 4: inactive

----------
- target: Cellular tumor antigen p53 (Homo sapiens)
- method: TOX21_p53_BLA_p5_ratio: Tox21 HCT-116 p53 Agonism Beta-lactamase Assay, Ratio, Phase 5 (AID 2283599)
Results filed as inconclusive are left out. Activity calls are given as the source filed them. How the source made its calls: active means hit-call score of the fitted dose curve at least 0.9, where 1 is the maximum; inconclusive means response in the unintended direction; inactive means score below 0.9.
Use one of these outcomes when replying: 1.0 = active, 0.0 = inactive

# molecule, discrete label
rows = [
    ("CC(=O)OC1CCC(C(C)(C)C)CC1 (configuration not stated)", 0.0),
    ("CN[C@H]1CC[C@@H](c2ccc(Cl)c(Cl)c2)c2ccccc21", 0.0),
    ("C=CC(=O)CCCCC", 0.0),
    ("CCOc1nc2cccc(C(=O)O)c2n1Cc1ccc(-c2ccccc2-c2nn[nH]n2)cc1", 1.0),
    ("CC(=O)Nc1c(I)cc(I)c(C(=O)O)c1I", 0.0),
    ("Cc1ccc2c(Br)cc(Br)c(O)c2n1", 0.0),
]

Turning now to a further molecule:
Request: Would you mind telling me which call this test gave Cn1c(O)c(N=NC(N)=S)c2ccccc21 ?
Result: 0.0

----------
- method: TOX21_p53_BLA_p4_viability: Viability Assessment in the Tox21 HCT-116 p53 Agonism Beta-lactamase Assay, Phase 4 (AID 2283597);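 note: hits lower the luminescence signal meaning cytotoxicity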
Results filed as inconclusive are left out. The source made the active and inactive calls. The calls were made as follows: active = hit-call score of the fitted dose curve at least 0.9, where 1 is the maximum; inconclusive = response in the unintended direction; inactive = score below 0.9. *1 amine or outer side, *2 acyl side, *3 side chain or, on linkers, in order; H or OH if unused. Where a SMILES comes first, the peptide text is derived from it. Bridges are numbered along the chain shown (N, C = ends). Roman numbers before positions name the chains, in order. [ ]: non-standard residue; d: D form. Actinocin(9to1) = Cc1c2oc3c(C)ccc(C(=O)[*:1])c3nc-2c(C(=O)[*:2])c(N)c1=O; NMeV = CN[C@H](C(=O)O)C(C)C; Sar = CNCC(=O)O
Select the correct class. Options are 1 (yes) = active, 0 (no) = inactive and nothing else.

# molecule, discrete label
measured = [
    ("CC1CCCNC1 (stereo unspecified)", "0 (no)"),
]

Request: What classification did O=S(c1cc(Cl)cc(Cl)c1O)c1cc(Cl)cc(Cl)c1O end up with in this test?
Result: 0 (no)

Request: Give the logged outcome of this assay for the following molecule: Nc1ccc(C(=O)Nc2ccccc2N)cc1
Result: 1 (yes)

Request: # outcome recorded in this test, key = O=C(Nc1ccc(Br)cc1)c1cc(Br)c(Br)s1
Result: 1 (yes)

Request: # outcome recorded in this test, key = COc1ccc(Cl)cc1C(=O)NCCc1ccc(S(=O)(=O)NC(=O)NC2CCCCC2)cc1
Result: 0 (no)

Request: Assay outcome for Cc1ccc(/C(=C\CN2CCCC2)c2cccc(/C=C/C(=O)O)n2)cc1 : what was it?
Result: 0 (no)

Request: GET /call?item= COC[C@H](c1ccc(C(F)(F)F)cc1)N1CCN(C2(C)CCN(C(=O)c3c(C)ncnc3C)CC2)C[C@H]1C returns the recorded outcome of this test.
Result: 0 (no)

Request: Dear colleague, could you share the recorded outcome for CC(=O)N(CC(O)CO)c1c(I)c(C(=O)NCC(O)CO)c(I)c(C(=O)NCC(O)CO)c1I (stereo unspecified) when you have a moment?
Result: 0 (no)

Request: Any idea what this test logged for COc1cc(-c2ccc(N=C=O)c(OC)c2)ccc1N=C=O ?
Result: 0 (no)

Request: # lookup: test call for CN(C)C(=O)C(CCN1CCC(O)(c2ccc(Cl)cc2)CC1)(c1ccccc1)c1ccccc1
Result: 1 (yes)

Request: Dear colleague, could you share the recorded outcome for Oc1cccc2cc3cccc(O)c3c(O)c12 when you have a moment?
Result: 0 (no)

Request: Give the logged outcome of this assay for the following molecule: Cc1c2oc3c(C)ccc(C(=O)N[C@@H]4C(=O)N[C@H](C(C)C)C(=O)N5CCC[C@H]5C(=O)N(C)CC(=O)N(C)[C@@H](C(C)C)C(=O)O[C@@H]4C)c3nc-2c(C(=O)N[C@@H]2C(=O)N[C@H](C(C)C)C(=O)N3CCC[C@H]3C(=O)N(C)CC(=O)N(C)[C@@H](C(C)C)C(=O)O[C@@H]2C)c(N)c1=O (I: T[dV]P[Sar][NMeV] / II: T[dV]P[Sar][NMeV]; ester I:1-I:C, II:1-II:C; linker I:N-II:N via Actinocin(9to1))
Result: 0 (no)

Request: Fill in: this test's call for O=C(O)/C=C/C(O)c1ccc(Cl)cc1 (stereo unspecified) is ___
Result: 0 (no)

Request: Write down the call the test reported for this molecule. Item: CC(CN(C)C)C(C)(O)Cc1ccc(Cl)cc1 (stereo unspecified)
Result: 0 (no)

Request: Write down the call the test reported for this molecule. Item: O=P(O)(O)CP(=O)(O)O
Result: 0 (no)

Request: Could you kindly confirm the outcome this assay logged for CCCCCCCCCCCC[n+]1ccc2ccccc2c1 ?
Result: 1 (yes)

Request: How did this test come out for CNCc1ccccc1 ?
Result: 0 (no)

Request: // return assay outcome for CC1Cc2ccccc2N1NC(=O)c1ccc(Cl)c(S(N)(=O)=O)c1 (stereo unspecified)
Result: 0 (no)

Request: Answer briefly: the call reported for NC(=S)NC(N)=S in this assay.
Result: 0 (no)

Request: # lookup: test call for CCN(CC)C(C)=O
Result: 0 (no)

Request: Could you please tell me the result logged for Cc1c(C)n(CCN(C)C)c2ccc(C(=O)OCCN(C)C)cc12 in this assay?
Result: 0 (no)

----------
- Read-out: E-selectin (Homo sapiens) (UniProt P16581)
- Sequence (P16581 whole entry, looked up): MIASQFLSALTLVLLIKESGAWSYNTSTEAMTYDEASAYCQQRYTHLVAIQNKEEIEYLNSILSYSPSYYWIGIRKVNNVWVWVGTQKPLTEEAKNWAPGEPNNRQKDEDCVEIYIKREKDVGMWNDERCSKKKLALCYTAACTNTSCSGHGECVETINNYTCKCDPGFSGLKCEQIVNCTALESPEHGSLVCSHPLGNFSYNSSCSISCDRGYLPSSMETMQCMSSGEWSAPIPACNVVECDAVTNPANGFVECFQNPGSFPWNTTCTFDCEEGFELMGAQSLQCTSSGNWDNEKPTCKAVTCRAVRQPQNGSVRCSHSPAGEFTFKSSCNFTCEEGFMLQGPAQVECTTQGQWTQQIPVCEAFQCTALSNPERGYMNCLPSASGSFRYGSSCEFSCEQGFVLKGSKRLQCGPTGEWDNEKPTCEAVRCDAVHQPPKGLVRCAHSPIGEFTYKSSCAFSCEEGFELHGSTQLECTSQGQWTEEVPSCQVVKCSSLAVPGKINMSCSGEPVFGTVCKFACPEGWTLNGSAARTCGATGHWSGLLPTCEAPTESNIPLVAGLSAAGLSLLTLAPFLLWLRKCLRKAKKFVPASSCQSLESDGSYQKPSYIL
- method: BSK_3C_Eselectin: BioMAP Diversity Plus: 3C Assay for Eselectin Biomarker Activity (AID 2283015);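 for Outcome: cell surface E-selectin protein quantified by ELISA 24 h after dosing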
- study conditions: primary human endothelial cells (HUVEC); actives raise or lower the signal
The source made the active and inactive calls. The calls were made as follows: active = hit-call score of the fitted dose curve at least 0.9, where 1 is the maximum; inactive = score below 0.9.
Outcome (select one): Yes for active, No for inactive

Solved entries:
# compound, discrete label
records = [
    ("COc1cc(CNC(=O)CCCC/C=C/C(C)C)ccc1O", "No"),
    ("Cc1cccnc1", "No"),
]

Request: Entry Sc1nc2ccccc2s1 : call = ?
Result: No

Request: Entry CN(C)CCC(c1ccc(Cl)cc1)c1ccccn1 (stereo not drawn) : call = ?
Result: No

Request: Please state the recorded outcome for this compound: COC(=O)/C=C\C(=O)OC
Result: Yes

Request: Identify the outcome logged in this assay for the compound shown: COc1ccc(C(=O)c2ccccc2O)c(O)c1
Result: No

----------
- target: Nuclear receptor subfamily 4 group A member 2 (Homo sapiens)
- method: ATG_NURR1_TRANS: Attagene TRANS-FACTORIAL HepG2 Assay for human Nuclear Receptor Related Protein 1 (NURR1) (AID 2282985)
- study conditions: HepG2 Attagene TRANS reporter, mRNA readout
Records with an inconclusive call do not appear. Activity calls are given as the source filed them. The calls were made as follows: active = hit-call score of the fitted dose curve at least 0.9, where 1 is the maximum; inconclusive = response in the unintended direction; inactive = score below 0.9.
One label from this list, please: active, inactive

The examples below pair each entry with its known result.
# compound, target, discrete label
data = [
    ("CCO[Si](CCCN)(OCC)OCC", "Nuclear receptor subfamily 4 group A member 2 (Homo sapiens)", "inactive"),
    ("CCCCC(CC)COC(=O)CS (stereo unspecified)", "Nuclear receptor subfamily 4 group A member 2 (Homo sapiens)", "inactive"),
    ("CCCC(=O)OC/C=C(\\C)CCC=C(C)C", "Nuclear receptor subfamily 4 group A member 2 (Homo sapiens)", "inactive"),
    ("COc1ccccc1OCC(O)CO (stereo unspecified)", "Nuclear receptor subfamily 4 group A member 2 (Homo sapiens)", "inactive"),
]

Request: What call does the record list for O=C1CCCCCCCCCCCCCC1 ?
Result: active

Request: Outcome logged for CCCCCCCCCCC1CO1 (stereo unspecified) in this assay:
Result: inactive

Request: Hey, what did the test say about CCCCCCCCCCCCCC ?
Result: inactive
